Data origin, for the record: PubChem BioAssay AID2060897

# Test system: 966289-007-R4-J1-PDC complex spheroid viability;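 also: spheroids exposed to agents for one week before readout; percent viability relative to DMSO vehicle control wells as 100%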
# Procedure Details: Anticancer human tumor 966289-007-R4-J1-PDC patient-derived pancreatic adenocarcinoma cell line growth inhibition [RAS]
# Setup Conditions: second compound 0.00316 µM; first compound 3.16 µM; active compounds read low
Below, each of the compounds is paired with its reported viability, T/C value.
Express it in %; write the number only.

Worked examples follow.
Compound	viability, T/C (%)
C[C@@H](NC(=O)c1ncnc(N)c1Cl)c1ncc(C(=O)Nc2cc(C(F)(F)F)c(Cl)cn2)s1 + C=CC(=O)N1CCN(c2nc(OCC3CCCN3C)nc3c(F)c(-c4nc(N)cc(C)c4C(F)(F)F)c(Cl)cc23)C(C)C1	128
CCC(CC)c1cc(NC2CCC(N)C2)n2nccc2n1 (stereo not given) + C=CC(=O)N1CCN(c2nc(OCC3CCCN3C)nc3c(F)c(-c4nc(N)cc(C)c4C(F)(F)F)c(Cl)cc23)C(C)C1	2.16
CC1(O)CCCC1n1c(=O)c(C(F)F)cc2cnc(NC3CCN(S(C)(=O)=O)CC3)nc21 (stereo not given) + C=CC(=O)N1CCN(c2nc(OCC3CCCN3C)nc3c(F)c(-c4nc(N)cc(C)c4C(F)(F)F)c(Cl)cc23)C(C)C1	29.8
CC(Nc1ccc2c(c1)OCCn1cc(N3C(=O)OCC3C(F)F)nc1-2)C(N)=O (stereo not given) + C=CC(=O)N1CCN(c2nc(OCC3CCCN3C)nc3c(F)c(-c4nc(N)cc(C)c4C(F)(F)F)c(Cl)cc23)C(C)C1	101

Shifting focus to the compound that follows.
viability, T/C reading for CC(C)NCC(C(=O)N1CCN(c2ncnc3c2C(C)CC3O)CC1)c1ccc(Cl)cc1 (stereo not given) + C=CC(=O)N1CCN(c2nc(OCC3CCCN3C)nc3c(F)c(-c4nc(N)cc(C)c4C(F)(F)F)c(Cl)cc23)C(C)C1 : 70.1
